assay.system: T1, Human CD122 His tagged (human, UniProt P14784 27-240)
T1 construct: also called hCD122; monomeric antigen; not shown: His tag
T1 sequence: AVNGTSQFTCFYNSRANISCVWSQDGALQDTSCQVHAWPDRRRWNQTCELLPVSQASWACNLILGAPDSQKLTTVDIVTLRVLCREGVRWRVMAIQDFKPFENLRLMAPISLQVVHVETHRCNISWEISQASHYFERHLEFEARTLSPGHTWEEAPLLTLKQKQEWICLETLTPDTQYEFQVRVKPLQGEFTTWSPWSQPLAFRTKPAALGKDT
experimental.details: Biacore, Fab affinity and kinetics on hCD122
Please provide measured Kd for the entries that follow.
Numbers only, in nM.

As a guide, the following entries are already answered.
{"columns": ["binder", "units.of.measure", "readout.value"],
 "data": [
  ["FAB06 (Fab, V domains shown, 06F11-V optimization variant; also called Fab version of MAB06) VH: EVQLLESGGGLVQPGGSLRLSCAASGFTVTSYAVHWVRQAPGKGLEWLGVIWSGGSTDYNAAFISRLTISKDNSKNTVYFQMNSLRAEDTAVYYCARAGDANYDGFAYWGQGTLVTVSS VL: DIQMTQSPSSLSASVGDRVTITCQASSSVSFMYWYQQRPGKAPRLLIYDTSNLASGVPSRFSGSGSGTSYTFTISSLQPEDIATYYCQQWSTYPLTFGQGTKVEIK", "nM", 8],
  ["FAB05 (Fab, V domains shown, 06F11-V optimization variant; also called Fab version of MAB05) VH: EVQLLESGGGLVQPGGSLRLSCAASGFTVTSYAVHWVRQAPGKGLEWLGVIWSGGSTDYNAAFISRLTISKDNSKNTVYFQMNSLRAEDTAVYYCARAGDANYDGFAYWGQGTLVTVSS VL: DIQMTQSPSSLSASVGDRVTITCQASQSVSFLYWYQQRPGKAPRLLIYDTSNLASGVPSRFSGSGSGTSYTFTISSLQPEDIATYYCQQWSTYPLTFGQGTKVEIK", "nM", 10.2],
  ["FAB18 (Fab, V domains shown, 06F11-V optimization variant; also called Fab version of MAB18) VH: EVQLLESGGGLVQPGGSLRLSCAASGFSVTSYGVHWIRQAPGKGLEWLGVIWSGGSTDYNAAFISRLTISKDNSKNTVYFQMNSLRAEDTAVYYCARAGDYNYDGFAYWGQGTLVTVSS VL: DIQMTQSPSSLSASVGDRVTITCQASSSVSFMYWYQQRPGKAPRLLIYDTSNLASGVPSRFSGSGSGTSYTFTISSLQPEDIATYYCQQWSTYPLTFGQGTKVEIK", "nM", 11.5],
  ["FAB17 (Fab, V domains shown, 06F11-V optimization variant; also called Fab version of MAB17) VH: EVQLLESGGGLVQPGGSLRLSCAASGFSVTSYGVHWIRQAPGKGLEWLGVIWSGGSTDYNAAFISRLTISKDNSKNTVYFQMNSLRAEDTAVYYCARAGDYNYDGFAYWGQGTLVTVSS VL: DIQMTQSPSSLSASVGDRVTITCQASQSVSFLYWYQQRPGKAPRLLIYDTSNLASGVPSRFSGSGSGTSYTFTISSLQPEDIATYYCQQWSTYPLTFGQGTKVEIK", "nM", 10.7],
  ["FAB15 (Fab, V domains shown, 06F11-V optimization variant; also called Fab version of MAB15) VH: EVQLLESGGGLVQPGGSLRLSCAASGFSVTSYGVHWIRQAPGKGLEWLGVIWSGGSTDYNAAFISRLTISKDNSKNTVYFQMNSLRAEDTAVYYCARAGDANYDGFAYWGQGTLVTVSS VL: DIQMTQSPSSLSASVGDRVTITCQASSSVSFMYWYQQRPGKAPRLLIYDTSNLASGVPSRFSGSGSGTSYTFTISSLQPEDIATYYCQQWSTYPLTFGQGTKVEIK", "nM", 5.5]
]}

Answer for every listed entry: what is its Kd? The entries follow.
1. FAB14 (Fab, V domains shown, 06F11-V optimization variant; also called Fab version of MAB14) VH: EVQLLESGGGLVQPGGSLRLSCAASGFSVTSYGVHWIRQAPGKGLEWLGVIWSGGSTDYNAAFISRLTISKDNSKNTVYFQMNSLRAEDTAVYYCARAGDANYDGFAYWGQGTLVTVSS VL: DIQMTQSPSSLSASVGDRVTITCQASQSVSFLYWYQQRPGKAPRLLIYDTSNLASGVPSRFSGSGSGTSYTFTISSLQPEDIATYYCQQWSTYPLTFGQGTKVEIK
2. VillFab-1 (Fab, V domains shown, also called Villmab-1 in human Fab format) VH: EVQLLESGGGLVQPGGSLRLSCAASGFSVTSYGVHWIRQAPGKGLEWLGVIWSGGSTDYNAAFISRLTISKDNSKNTVYFQMNSLQAEDTAIYYCARAGDYNYDGFAYWGQGTLVTVSS VL: DIVLTQSPSSLSASVGDRVTITCSGSSSVSFMYWYQQRPGKAPRLLIYDTSNLASGVPSRFSGSGSGTSYTFTISSLQPEDIATYYCQQWSTYPLTFGQGTKVEVK

[4.3, 12.4]
